# study system: human CYP11B2 (Homo sapiens (Human))
# Sequence (P19099 25-503): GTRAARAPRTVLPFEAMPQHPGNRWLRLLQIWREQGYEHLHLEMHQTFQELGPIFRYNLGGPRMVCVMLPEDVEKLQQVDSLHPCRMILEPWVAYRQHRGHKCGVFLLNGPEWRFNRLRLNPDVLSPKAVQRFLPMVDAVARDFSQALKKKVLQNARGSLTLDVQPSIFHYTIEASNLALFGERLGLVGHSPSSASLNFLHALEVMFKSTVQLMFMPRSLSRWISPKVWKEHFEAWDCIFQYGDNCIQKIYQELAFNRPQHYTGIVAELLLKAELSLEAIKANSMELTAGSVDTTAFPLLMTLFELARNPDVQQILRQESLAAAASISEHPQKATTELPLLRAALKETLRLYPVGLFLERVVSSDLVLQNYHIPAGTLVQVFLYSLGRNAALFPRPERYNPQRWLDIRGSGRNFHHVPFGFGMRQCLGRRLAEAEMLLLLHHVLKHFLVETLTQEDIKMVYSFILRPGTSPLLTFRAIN
# protocol description: G-402 cellular enzyme assay, human CYP11B2 (aldosterone release, HTRF)
# test parameters: G-402 cells expressing human CYP11B2; 1 μM Deoxycorticosterone
attribute measured: EC50
Respond with a number, then the unit of measure.

Exercise: What value of measured EC50 is listed for C[C@H](O)C(=O)NC1CCCc2c(-c3ccc4c(c3)CCC(=O)N4C)cncc21 (single isomer, unassigned; (+)) [Example 21] ?
Key: 28 nM

Exercise: Can you handle CCC(=O)NC1CCc2c(-c3cc(Cl)c4c(c3)CCC(=O)N4C)cncc21 (single isomer, unassigned; (-)) [Example 59] next?
Key: 3290 nM

Exercise: Can you handle CCS(=O)(=O)NC1CCCc2c(-c3ccc4c(c3)CCC(=O)N4C)cncc21 (single isomer, unassigned; (+)) [Example 6] next?
Key: 48 nM

---
Exercise: What value of measured EC50 is listed for CCS(=O)(=O)NC1CCCc2c(-c3cc(Cl)c4c(c3)CCC(=O)N4C)cncc21 (single isomer, unassigned; (+)) [Example 38] ?
Key: 422 nM

These measurements were taken from patent US9353081B2.
